Data provenance is patent US20260242735A1.

Molecular target: human CD33 variant K52H (human, UniProt P20138 18-364)
Sequence (P20138 18-364 K52H limits assumed): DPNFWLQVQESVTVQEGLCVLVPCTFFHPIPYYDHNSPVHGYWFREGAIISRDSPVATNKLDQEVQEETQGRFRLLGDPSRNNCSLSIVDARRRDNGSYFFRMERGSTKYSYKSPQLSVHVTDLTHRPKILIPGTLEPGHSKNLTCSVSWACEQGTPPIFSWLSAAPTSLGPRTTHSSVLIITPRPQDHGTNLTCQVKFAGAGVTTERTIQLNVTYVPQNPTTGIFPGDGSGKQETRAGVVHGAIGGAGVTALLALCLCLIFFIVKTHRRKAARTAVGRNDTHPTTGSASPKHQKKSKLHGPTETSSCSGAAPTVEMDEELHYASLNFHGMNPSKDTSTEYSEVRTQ
Assay: flow cytometry, IgG on cells expressing the mutant
Result Type: Mean % WT Binding

The cases that follow already have their Mean % WT Binding on record.
INSERT INTO assay_data (binder, recorded_result) VALUES
  ('Refmab #4 (antibody, human IgG1, V domains shown, Tested in IgG format; human IgG1 Fc silent (PG-LALA)) VH: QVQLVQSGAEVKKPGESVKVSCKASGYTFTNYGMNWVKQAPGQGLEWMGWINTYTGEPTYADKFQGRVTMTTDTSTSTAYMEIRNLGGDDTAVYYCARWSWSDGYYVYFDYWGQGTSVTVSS VL: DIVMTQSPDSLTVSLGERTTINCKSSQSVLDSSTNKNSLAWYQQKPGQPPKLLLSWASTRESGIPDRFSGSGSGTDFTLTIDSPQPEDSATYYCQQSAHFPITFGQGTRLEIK', '75.1 % of WT'),
  ('Refmab #1 (antibody, human IgG1, V domains shown, Tested in IgG format; human IgG1 (Absolute Antibody hP67.6, Cat. No. Ab00283-10.0); also called hP67.6) VH: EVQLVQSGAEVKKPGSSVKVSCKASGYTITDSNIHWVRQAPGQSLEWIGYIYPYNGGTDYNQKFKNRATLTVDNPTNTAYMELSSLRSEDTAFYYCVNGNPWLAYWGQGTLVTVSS VL: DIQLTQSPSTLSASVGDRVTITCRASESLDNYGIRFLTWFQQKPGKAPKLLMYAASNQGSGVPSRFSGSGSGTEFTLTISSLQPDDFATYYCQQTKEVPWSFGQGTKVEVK', '94.2 % of WT');

Give me Mean % WT Binding for each of these binders, listed below.
1. Refmab #3 (antibody, human IgG1, V domains shown, Tested in IgG format; human IgG1 Fc silent (PG-LALA)) VH: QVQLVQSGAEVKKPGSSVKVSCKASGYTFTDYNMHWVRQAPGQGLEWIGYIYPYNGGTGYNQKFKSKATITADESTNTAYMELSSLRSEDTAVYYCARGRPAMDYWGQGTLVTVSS VL: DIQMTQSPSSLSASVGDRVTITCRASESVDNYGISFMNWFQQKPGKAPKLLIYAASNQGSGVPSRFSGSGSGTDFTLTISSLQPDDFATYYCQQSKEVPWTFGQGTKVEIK
2. Refmab #2 (antibody, human IgG1, V domains shown, Tested in IgG format; human IgG1 Fc silent (PG-LALA)) VH: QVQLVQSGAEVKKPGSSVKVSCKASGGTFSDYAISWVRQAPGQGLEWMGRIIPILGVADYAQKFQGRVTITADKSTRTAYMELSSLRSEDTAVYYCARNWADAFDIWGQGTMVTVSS VL: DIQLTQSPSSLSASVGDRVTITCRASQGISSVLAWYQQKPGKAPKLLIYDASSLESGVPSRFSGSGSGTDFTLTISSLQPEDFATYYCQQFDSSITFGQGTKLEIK

Found:
["101 % of WT", "84.7 % of WT"]
